Procedure Details: Stability in human plasma
Format: in vitro ADME
Test Parameters: human, plasma; 2 μM, 37° C.; read-out: half-life (t1/2) in human plasma
The entries below come with measured half-life values attached.

Molecule	Value
CCc1cc(OC)ccc1-c1ccc(CC(NC(=O)[C@H](CC(=O)O)NC(=O)[C@H](CO)NC(=O)[C@@H](NC(=O)C(C)(Cc2ccccc2F)NC(=O)[C@@H](NC(=O)CNC(=O)[C@H](CCC(N)=O)NC(=O)C(C)(C)NC(=O)[C@@H](N)Cc2c[nH]cn2)[C@@H](C)O)[C@@H](C)O)C(=O)NC(Cc2ccc(-c3ccccc3C)nc2)C(N)=O)cc1 (single isomer, unassigned)	> 24 h

Note: attention shifts to another entry.
Quick one: give measured half-life for CCc1cc(OC)ccc1-c1ccc(CC(NC(=O)[C@H](CC(=O)O)NC(=O)[C@H](CO)NC(=O)[C@@H](NC(=O)[C@H](Cc2ccccc2)NC(=O)[C@@H](NC(=O)CNC(=O)[C@H](CCC(N)=O)NC(=O)C2(NC(=O)[C@@H](N)Cc3c[nH]cn3)CC2)[C@@H](C)O)[C@@H](C)O)C(=O)NC(Cc2ccc(-c3ccccc3C(F)(F)F)cc2)C(N)=O)cc1 (single isomer, unassigned) > 24 h
